Answer each item with its documented IC50.
# Study System: T1, FLAG-tagged mouse Ang2 (mouse, UniProt O35608 19-496)
# T1 construct: N-terminally FLAG-tagged, conditioned medium of HEK293T cells; also called mAng2; FLAG-mAng2
# T1 sequence: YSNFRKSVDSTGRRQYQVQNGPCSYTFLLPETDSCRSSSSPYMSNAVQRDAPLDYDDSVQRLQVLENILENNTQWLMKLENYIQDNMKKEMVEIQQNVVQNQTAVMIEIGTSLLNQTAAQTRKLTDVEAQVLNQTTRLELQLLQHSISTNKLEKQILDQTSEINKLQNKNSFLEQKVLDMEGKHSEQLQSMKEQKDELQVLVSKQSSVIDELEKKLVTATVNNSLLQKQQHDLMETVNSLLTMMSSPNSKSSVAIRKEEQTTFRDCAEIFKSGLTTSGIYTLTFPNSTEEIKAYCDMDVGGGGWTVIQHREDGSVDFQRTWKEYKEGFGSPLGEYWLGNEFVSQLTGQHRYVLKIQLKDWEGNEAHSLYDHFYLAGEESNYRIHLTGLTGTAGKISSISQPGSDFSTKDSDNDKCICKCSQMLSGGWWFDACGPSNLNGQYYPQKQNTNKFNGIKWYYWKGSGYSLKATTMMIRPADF
# Test Method Notes: competition ELISA: FLAG-mAng2 binding to coated mTie2-Fc
// return numeric value only (unit: nM, not printed)

Form field IC50, entry VHH 00908 (VHH, not shown: small tags and cut ends) VHH: EVQLVESGGGLVQPGGSLRLSCAASGITLDDYAIGWFRQAPGKEREGVSSIRDNGGSTYYADSVKGRFTISSDNSKNTVYLQMNSLRPEDTAVYYCAAVPAGRLRYGEQWYPIYEYDAWGQGTLVTVSS : 0.085

Form field IC50, entry VHH 00935 (VHH, not shown: small tags and cut ends, Cycle 3 variant of 28D10 on the 00908 backbone) VHH: EVQLVESGGGLVQPGGSLRLSCAASGITLDDYAIGWFRQAPGKEREGVSAIRSSGGSTYYADSVKGRFTISSDNSKNTVYLQMNSLRPEDTAVYYCAAVPAGRLRYGEQWYPIYEYDAWGQGTLVTVSS : 0.078

Form field IC50, entry VHH 00956 (VHH, not shown: small tags and cut ends) VHH: EVQLVESGGGLVQPGGSLRLSCAASGFTLDDYAIGWFRQAPGKEREGVSAIRSSGGSTYYADSVKGRFTISSDNSKNTVYLQMNSLRPEDTAVYYCAAVPAGRLRFGEQWYPLYEYDAWGQGTLVTVSS : 2.2

Reference source: patent US20230203146A1
